Test system: PBMC
Test: ELISPOT (IFNγ, IL-5, IL-10, IL-17, IL-21) of PBMC expanded 14 days with Bla g extract, then stimulated with peptides or peptide pools
Assay type: cell-based, human
Set-up: key: spot forming cells (SFC) per 10^6 PBMC
Conditions: non-redundant epitopes; sensitized donors
Description: PBMC Isolation and Cell Cultures: PBMC (peripheral blood mononuclear cells) were isolated from 450 mL (one unit) of blood by density gradient centrifugation as described and cryopreserved. […] ELISPOT Assays: Production of IFNγ, IL-5, IL-17, IL-10, and IL-21 (as representative of TH1, TH2, TH17, TR1, and […], respectively) in response to peptide stimulation was measured by ELISPOT as described previously. […]
# class assignment by measured Average Magnitude of Response: bottom end = under 4, midrange = from 4 up to 20, top end = 20 and over

Hi there! Could you help me figure out the category for `IRHAILAAGDLYSRR` please? midrange

Hi there! Could you help me figure out the category for NYAIVEGCPAAANGH (listed as Blattella germanica) please? top end

Hi there! Could you help me figure out the category for `IQGKFGLDATAVGDE` please? midrange

Hi there! Could you help me figure out the category for `KTPVLSVNATVVRLQ` please? bottom end

Hi there! Could you help me figure out the category for `NAIEFLNNIHDLLGI` please? bottom end

Hi there! Could you help me figure out the category for `KKLQFTYSESLDLDD` please? midrange

Hi there! Could you help me figure out the category for `AKRFAKWALPLYNKP` please? midrange

Hi there! Could you help me figure out the category for `LNAIEFINNIHDLLG` please? midrange

Hi there! Could you help me figure out the category for `FYTEFDMENNRVGFA` please? midrange

Hi there! Could you help me figure out the category for `EMIQHYTLDQVNQHK` please? bottom end

Hi there! Could you help me figure out the category for `LVYPTSLGFPLKLVL` please? midrange

Hi there! Could you help me figure out the category for `KELVEKYGKGKAIFI` please? bottom end

Hi there! Could you help me figure out the category for DRKMYWQFKMDKIQI (listed as Blattella germanica) please? top end

Hi there! Could you help me figure out the category for `GEPIRFLLSYGEKDF` please? bottom end

Hi there! Could you help me figure out the category for `PVDQIIAIATDYLAN` please? midrange

Hi there! Could you help me figure out the category for `MAPSYKLTYCPVKAL` please? midrange

Hi there! Could you help me figure out the category for `AGTWSALNSIQQFIS` please? midrange

Hi there! Could you help me figure out the category for `VYEVAIPDRLTLRVE` please? bottom end

Hi there! Could you help me figure out the category for `KLAASDSKSLLRKYL` please? top end

Hi there! Could you help me figure out the category for `AKGMMHMIKKGANGS` please? midrange

Hi there! Could you help me figure out the category for `NASAVIQEFLKTYKK` please? midrange

Hi there! Could you help me figure out the category for `KALQNAESEVAALNR` please? midrange

Hi there! Could you help me figure out the category for PKSMLLNIFTNNLGR (listed as Blattella germanica) please? top end

Hi there! Could you help me figure out the category for RWRQIFNMVGFRNAV (listed as Blattella germanica) please? top end

Hi there! Could you help me figure out the category for `IAGPVSEVTALNRQI` please? bottom end

Hi there! Could you help me figure out the category for `VVRLQSWQSEMLRMN` please? midrange

Hi there! Could you help me figure out the category for `EIDGKQTHQSVAISR` please? bottom end

Hi there! Could you help me figure out the category for `FQINLDFKNHNGFIR` please? top end

Hi there! Could you help me figure out the category for `LNQEAHYQFDSIHKF` please? top end

Hi there! Could you help me figure out the category for `VQKLQKEVDRLEDEL` please? bottom end

Hi there! Could you help me figure out the category for NIACLLHNKYDSTKS (listed as Blattella germanica) please? top end

Hi there! Could you help me figure out the category for `KVFLKNYLVGNAQFK` please? midrange

Hi there! Could you help me figure out the category for `RSEERLATATAKLAE` please? midrange

Hi there! Could you help me figure out the category for ALREKVLGLPAIKAW (listed as Blattella germanica) please? top end

Hi there! Could you help me figure out the category for LNIFTNNLGRINTHV (listed as Blattella germanica) please? top end

Hi there! Could you help me figure out the category for `RIKAFLALVECPCNK` please? midrange

Hi there! Could you help me figure out the category for `TKKFDEVVKANGGYL` please? top end

Hi there! Could you help me figure out the category for `SPYFVTNTEKMITEF` please? midrange

Hi there! Could you help me figure out the category for `FRKFSNNFEFSYLLG` please? bottom end

Hi there! Could you help me figure out the category for `DVLQWQTIPYTTIHN` please? midrange

Where do the numbers come from? From patent US11505581B2.
